Overview of reported cleaved RNA product abundance across a group of sequences:
Tested on: Bacillus subtilis
Assay: cleaved RNA product abundance (RNA/gDNA barcode ratio) relative to median wild-type variant (ratio to wild type); higher = more accumulation of the downstream cleavage product
Conditions: experiment (reporter, strain, medium): exp 4a: truncated aprE reporter, strain BJT201 with 2% xylose (RNase J1 expressed); cleavage site: cggR-gapA (positions -7 to +36 mutated)
Output spec: single numeric token, no unit.

Consider the following illustrative entries.
ACAGACGAAGGAGCCGCAAAGAAGTTATTAAGGCATGAATACTCCCTCAATATAAATATCTCTCACTTATTTAAA: 0.072
ACAGACGAAGGAGCCGCATAGAAGTTATTAAGTGATGAATAATCCCTCAATATAAATATCTCTCACTTATTTAAA: 0.0818
ACAGACGAAGGAGCCGCAAAGAAGTTGTTAAGGGATGAATAATCCGTCAATATAAATATCTCTCACTTATTTAAA: 0.418
ACAGACGAAGGAGCCGCAAAGAAGATATTAAGGGATGAATAATCCCTGAATATAAATATCTCTCACTTATTTAAA: 0.583
ACAGACGAAGGAGCCGCAAAGAAGTTATCAAGCGATGAATAATCCCTCAATATAAATATCTCTCACTTATTTAAA: 0.0711
ACAGACGAAGGAGCCGCAAAGAAGTTATTAAGGGATGAATAATCCCTCAATATAATGATCTCTCACTTATTTAAA: 0.348

Now for the sequence whose cleaved RNA product abundance we want.
Recall the reported cleaved RNA product abundance of ACAGACGAAGGAGCCGCAAAGAAGTTATTAAGGGATGAATAATACCTCGATATAAATATCTCTCACTTATTTAAA on Bacillus subtilis and write it down.
0.103
